FYI, the data here is from patent US8222416B2.

# TEST_SYSTEM: Recombinant human liver GK1 (GST-GK) (Homo sapiens, UniProt P35557)
# Construct: made in house; host or cells: E. coli
# Sequence (P35557 1-466 isoform P35557-2): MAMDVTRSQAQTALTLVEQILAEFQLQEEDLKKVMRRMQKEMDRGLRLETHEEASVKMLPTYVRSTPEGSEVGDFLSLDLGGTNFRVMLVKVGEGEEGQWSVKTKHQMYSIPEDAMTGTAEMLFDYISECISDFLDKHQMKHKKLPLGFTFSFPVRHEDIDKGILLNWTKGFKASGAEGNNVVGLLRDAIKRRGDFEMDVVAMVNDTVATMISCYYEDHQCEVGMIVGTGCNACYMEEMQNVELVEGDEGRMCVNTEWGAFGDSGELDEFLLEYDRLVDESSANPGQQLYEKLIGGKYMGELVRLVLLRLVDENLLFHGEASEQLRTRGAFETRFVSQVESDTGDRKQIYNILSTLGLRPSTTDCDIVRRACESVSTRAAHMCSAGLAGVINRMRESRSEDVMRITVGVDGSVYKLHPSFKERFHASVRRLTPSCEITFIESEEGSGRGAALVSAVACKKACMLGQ
# PROTOCOL_SUMMARY: In vitro glucokinase activity assay (G6PDH-coupled, NADH, OD340)
# Format: biochemical
# DETAILS: concentration of activator that produced a 50% increase in the activity of GK; 5 mM D-glucose, 30° C.
# Procedure: Glucokinase In Vitro Assay Protocol: Glucokinase (GK) was assayed by coupling the production of glucose-6-phosphate to the generation of NADH with glucose-6-phosphate dehydrogenase (G6PDH, 0.75-1 kunits/mg; Boehringer Mannheim, Indianapolis, Ind.) from Leuconostoc mesenteroides as the coupling enzyme (Scheme 2). […] After addition of enzyme, the increase in optical density (OD) at 340 nm was monitored spectrophotometrically to determine the rate of change (OD340 per min). […]
RESULT_TYPE: SC1.5 (µM)
State just the number; it will be interpreted in µM.

Some solved entries appear below for comparison.
INSERT INTO results (molecule, result_type, recorded_value) VALUES
  ('Cc1ccc(C(CC2CCCC2)c2cc3cccnc3[nH]2)cn1 (stereo not shown)', 'SC1.5', 3.5),
  ('CS(=O)(=O)c1ccc([C@@H](CC2CCCC2)c2cc3cc(C(=O)O)cnc3[nH]2)cc1 (single isomer, unassigned)', 'SC1.5', 3.4),
  ('CC(C)CC(c1cccc(Cl)c1)c1cc2cccnc2[nH]1 (stereo not shown)', 'SC1.5', 9.9),
  ('COc1cnc2[nH]c([C@H](CC3CCOCC3)c3ccc(S(C)(=O)=O)cc3)cc2c1 (single isomer, unassigned)', 'SC1.5', 1.1),
  ('CS(=O)(=O)c1ccc(C(O)(CC2CCCC2)c2cc3cc(F)cnc3[nH]2)cc1 (stereo not shown) [Example 48]', 'SC1.5', 0.654);

Problem: What SC1.5 value was documented for this molecule, CS(=O)(=O)c1ccc([C@@H](CC2CCCC2)c2cc3cc(C#N)cnc3[nH]2)cc1 (single isomer, unassigned) ?
Solution: 0.144

Problem: What SC1.5 value was documented for this molecule, COCc1cnc2[nH]c(C(CC3CCCC3)c3ccc(S(C)(=O)=O)cc3)cc2c1 (stereo not shown) ?
Solution: 2.8

Problem: What SC1.5 value was documented for this molecule, CS(=O)(=O)c1ccc(C(CC2CCCC2)c2cc3cc(CC(O)CO)cnc3[nH]2)cc1 (stereo not shown) ?
Solution: 7.3

Problem: What SC1.5 value was documented for this molecule, CNC(=O)c1cnc2[nH]c(C(CC(C)C)c3ccc(S(C)(=O)=O)cc3)cc2c1 (stereo not shown) ?
Solution: 11.3

Problem: What SC1.5 value was documented for this molecule, Cc1cccc(C(CC(C)C)c2cc3cccnc3[nH]2)c1 (stereo not shown) ?
Solution: 7.8

Problem: What SC1.5 value was documented for this molecule, CS(=O)(=O)c1ccc(C(CC2CCCC2)c2cc3cccnc3[nH]2)nc1 (stereo not shown) ?
Solution: 0.587

Problem: What SC1.5 value was documented for this molecule, COc1cnc2[nH]c(C(CC3CCCO3)c3ccc(S(C)(=O)=O)cc3)cc2c1 (single isomer, unassigned) [Example 24] ?
Solution: 2.0

Problem: What SC1.5 value was documented for this molecule, O=S(=O)(CCN1CCOCC1)c1ccc(C(CC2CCCC2)c2cc3cccnc3[nH]2)cc1 (stereo not shown) ?
Solution: 1.7

Problem: What SC1.5 value was documented for this molecule, CC(C)NC(=O)c1cnc2[nH]c(C(CC3CCCC3)c3ccc(S(C)(=O)=O)cc3)cc2c1 (stereo not shown) ?
Solution: 1.9

Problem: What SC1.5 value was documented for this molecule, CC(C)(O)c1ccc(C(CC2CCCC2)c2cc3cccnc3[nH]2)cc1 (stereo not shown) ?
Solution: 2.3

Problem: What SC1.5 value was documented for this molecule, CC(C)Oc1cnc2[nH]c(C(CC3CCCC3)c3ccc(S(C)(=O)=O)cc3)cc2c1 (stereo not shown) ?
Solution: 0.719

###

# TEST_SYSTEM: Recombinant human liver GK1 (GST-GK) (Homo sapiens, UniProt P35557)
# Construct: made in house; host or cells: E. coli
# PROTOCOL_SUMMARY: In vitro glucokinase activity assay (G6PDH-coupled, NADH, OD340)
# Assay type: biochemical
# DETAILS: concentration of activator that produced a 50% increase in the activity of GK; 5 mM D-glucose, 30° C.
RESULT_TYPE: log10(SC1.5) (log10 of the value in µM)
Scale: decimal log of SC1.5, SC1.5 in µM.

INSERT INTO assay_data (molecule, test_system, recorded_value) VALUES
  ('CC(C)(Oc1cnc2[nH]c(C(CC3CCCC3)c3ccc(S(C)(=O)=O)cc3)cc2c1)C(=O)O (centres unmarked) [Example 27]', 'Recombinant human liver GK1 (GST-GK) (Homo sapiens, UniProt P35557)', 1.13),
  ('CS(=O)(=O)c1ccc(C(CC2CCCC2)c2cc3cc(C(=O)N4CCOCC4)cnc3[nH]2)cc1 (centres unmarked) [Example 4]', 'Recombinant human liver GK1 (GST-GK) (Homo sapiens, UniProt P35557)', 1.02);

Problem: What log10(SC1.5) value was documented for this molecule, COc1cnc2[nH]c(C(CC3CCOCC3)c3ccc(C(F)(F)F)cc3)cc2c1 (centres unmarked) [Example 33] ?
Solution: 0.48

Problem: What log10(SC1.5) value was documented for this molecule, COc1cnc2[nH]c(C(CC3CCCC3)c3ccc(C(F)(F)F)cc3)cc2c1 (centres unmarked) [Example 20] ?
Solution: -0.16

Problem: What log10(SC1.5) value was documented for this molecule, CS(=O)(=O)c1ccc(C(CC2CCCC2)c2cc3cc(OCCO)cnc3[nH]2)cc1 (centres unmarked) [Example 30] ?
Solution: -0.10

Problem: What log10(SC1.5) value was documented for this molecule, N#Cc1ccc(C(CC2CCCC2)c2cc3cccnc3[nH]2)cc1 (centres unmarked) [Example 43] ?
Solution: 0.15

Problem: What log10(SC1.5) value was documented for this molecule, COc1ccc2cc(C(CC3CCCC3)c3ccc(S(C)(=O)=O)cc3)[nH]c2n1 (centres unmarked) [Example 113] ?
Solution: 0.26

Problem: What log10(SC1.5) value was documented for this molecule, CC(C)C[C@H](c1ccc(S(=O)(=O)CCO)cc1)c1cc2cc(F)cnc2[nH]1 (single isomer, unassigned) [Example 102] ?
Solution: -0.37

###

# TEST_SYSTEM: Recombinant human liver GK1 (GST-GK) (Homo sapiens)
# Construct: made in house; host or cells: E. coli
# PROTOCOL_SUMMARY: In vitro glucokinase activity assay (G6PDH-coupled, NADH, OD340)
# Assay type: biochemical
# DETAILS: concentration of activator that produced a 50% increase in the activity of GK; 5 mM D-glucose, 30° C.
Threshold rule: SC1.5 greater than or equal to 0.7 µM is 1 (yes); below that, 0 (no).

Solved entries:
INSERT INTO results (compound, assigned_class) VALUES
  ('CN(C)C(=O)COc1cnc2[nH]c([C@H](CC3CCCC3)c3ccc(S(C)(=O)=O)cc3)cc2c1 (single isomer, unassigned) [Example 14]', '1 (yes)'),
  ('COC(=O)c1cnc2[nH]c(C(CC3CCCC3)c3ccc(S(C)(=O)=O)cc3)cc2c1 (stereo not drawn) [Example 54]', '1 (yes)'),
  ('CC(C)(O)c1ccc(C(CC2CCCC2)c2cc3cc(F)cnc3[nH]2)cc1F (stereo not drawn) [Example 103]', '0 (no)'),
  ('Cc1cc(C)cc(C(CC2CCCC2)c2cc3cccnc3[nH]2)c1 (stereo not drawn) [Example 66]', '1 (yes)'),
  ('CS(=O)(=O)c1ccc([C@@H](CC2CCOCC2)c2cc3cc(F)cnc3[nH]2)cc1 (single isomer, unassigned) [Example 124]', '0 (no)');

Problem: Tell me whether SC1.5 is at least 0.7 µM here: CCOc1cccc(C(CC(C)C)c2cc3cccnc3[nH]2)c1 (stereo not drawn) [Example 133]
Solution: 1 (yes)

Problem: Tell me whether SC1.5 is at least 0.7 µM here: Cc1cnc2[nH]c(C(CC3CCCC3)c3ccc(S(C)(=O)=O)cc3)cc2c1 (stereo not drawn) [Example 128]
Solution: 1 (yes)

Problem: Tell me whether SC1.5 is at least 0.7 µM here: CC(C)CC(c1cccc(N(C)C)c1)c1cc2cccnc2[nH]1 (stereo not drawn) [Example 136]
Solution: 1 (yes)

Problem: Tell me whether SC1.5 is at least 0.7 µM here: CC(C)S(=O)(=O)c1ccc(C(CC2CCCC2)c2cc3cccnc3[nH]2)cc1 (stereo not drawn) [Example 69]
Solution: 0 (no)

Problem: Tell me whether SC1.5 is at least 0.7 µM here: CC(C)C[C@H](c1ccc(C(C)(C)O)c(F)c1)c1cc2cc(F)cnc2[nH]1 (single isomer, unassigned) [Example 106]
Solution: 0 (no)

Problem: Tell me whether SC1.5 is at least 0.7 µM here: O=S(=O)(CCO)c1ccc(C(CC2CCCC2)c2cc3cc(F)cnc3[nH]2)cc1 (stereo not drawn) [Example 88]
Solution: 0 (no)
